System: NCI-H23 complex spheroids with HUVEC/MSC, viability
Test: Anticancer human tumor NCI-H23 cell line growth inhibition [RAS];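 note: spheroids exposed to compound for 7 days; 100% = DMSO vehicle control viability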
Conditions: second compound 0.0316 µM; first compound 0.00949 µM; active compounds read low
Excerpt: RAS pathway inhibitors in Combinations in Complex Spheroids A high-throughput screen of multi-cell type tumor spheroids was designed to identify active combinations of RAS pathway inhibitors and targeted small molecules. Complex spheroids include a stromal component modeled by human endothelial cells (HUVEC) and fibroblasts modeled by human mesenchymal stem cells (MSCs). […] Compounds. […] If the clinical Cmax for an agent had not been determined, the highest concentration tested was 10 microM. […]
Here, each record is paired with measured viability, T/C data.
Give the value in % but do not write % after it.

Answered examples (3):
CC1(C)CCC(Nc2ncc(C(F)(F)F)c(-c3c[nH]c4c(P(C)(C)=O)c(C#N)ccc34)n2)CN1 (centres undefined) + C=CC(=O)N1CCN(c2nc(OCC3CCCN3C)nc3c(F)c(-c4nc(N)cc(C)c4C(F)(F)F)c(Cl)cc23)C(C)C1; 23.2
CCc1c2c(nc3ccc(O)cc13)-c1cc3c(c(=O)n1C2)COC(=O)[C@]3(O)CC + C=CC(=O)N1CCN(c2nc(OCC3CCCN3C)nc3c(F)c(-c4nc(N)cc(C)c4C(F)(F)F)c(Cl)cc23)C(C)C1; 9.5
CC1(C)CCC(Nc2ncc(C(F)(F)F)c(-c3c[nH]c4c(P(C)(C)=O)c(C#N)ccc34)n2)CN1 (centres undefined) + C#Cc1c(F)ccc2cc(O)cc(-c3ncc4c(N5CC6CCC(C5)N6)nc(OCC56CCCN5CC(F)C6)nc4c3F)c12; 64.1

# ---- query molecule ----
Request body: readout viability, T/C, system NCI-H23 complex spheroids with HUVEC/MSC, viability, query CCc1c2c(nc3ccc(O)cc13)-c1cc3c(c(=O)n1C2)COC(=O)[C@]3(O)CC + C#Cc1c(F)ccc2cc(O)cc(-c3ncc4c(N5CC6CCC(C5)N6)nc(OCC56CCCN5CC(F)C6)nc4c3F)c12 . Return the value.
29.9

---

System: NCI-H23 complex spheroids with HUVEC/MSC, viability
Experiment: Anticancer human tumor NCI-H23 cell line growth inhibition [RAS]; active means viability on the fitted dose curve at most 10% of control; inactive means the rest;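 note: spheroids exposed to compound for 7 days; 100% = DMSO vehicle control viability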
Settings: second compound 0.0949 µM; first compound 0.0316 µM
Allowed answers: active, inactive

Consider the worked cases shown below.
C[C@@H](NC(=O)c1ncnc(N)c1Cl)c1ncc(C(=O)Nc2cc(C(F)(F)F)c(Cl)cn2)s1 + CCn1c(-c2cccnc2C(C)OC)c2c3cc(ccc31)N1CCOC(CC(NC(=O)C(C(C)C)N(C)C(=O)C3(F)CCN(C(=O)C#CC(C)(C)N(C)C)CC3)C(=O)N3CCCC(N3)C(=O)OCC(C)(C)C2)C1; inactive
NC1c2ccccc2OC12CCN(c1cnc3c(N4CCCc5ncccc54)n[nH]c3n1)CC2 (stereo not given) + CCn1c(-c2cc(N3CCN(C)CC3)cnc2C(C)OC)c2c3cc(ccc31)-c1csc(n1)CC(NC(=O)C1CC1C)C(=O)N1CCCC(N1)C(=O)OCC(C)(C)C2; inactive
C=CC(=O)N1CCN(c2nc(OCC3CCCN3C)nc3c(F)c(-c4nc(N)cc(C)c4C(F)(F)F)c(Cl)cc23)C(C)C1 (stereo not given) + CCn1c(-c2cc(N3CCN(C)CC3)cnc2C(C)OC)c2c3cc(ccc31)-c1csc(n1)CC(NC(=O)C1CC1C)C(=O)N1CCCC(N1)C(=O)OCC(C)(C)C2; inactive
CC(C)n1nc(-c2ccc3oc(N)nc3c2)c2c(N)ncnc21 + CCn1c(-c2cccnc2C(C)OC)c2c3cc(ccc31)N1CCOC(CC(NC(=O)C(C(C)C)N(C)C(=O)C3(F)CCN(C(=O)C#CC(C)(C)N(C)C)CC3)C(=O)N3CCCC(N3)C(=O)OCC(C)(C)C2)C1; inactive
CC(=O)OC12COC1CC(O)C1(C)C(=O)C(O)C3=C(C)C(OC(=O)C(O)C(NC(=O)OC(C)(C)C)c4ccccc4)CC(O)(C(OC(=O)c4ccccc4)C21)C3(C)C (stereo not given) + CCn1c(-c2cc(N3CCN(C)CC3)cnc2C(C)OC)c2c3cc(ccc31)-c1csc(n1)CC(NC(=O)C1CC1C)C(=O)N1CCCC(N1)C(=O)OCC(C)(C)C2; inactive
C=CC(=O)N1CCN(c2nc(OCC3CCCN3C)nc3c(F)c(-c4nc(N)cc(C)c4C(F)(F)F)c(Cl)cc23)C(C)C1 (stereo not given) + CCn1c(-c2cccnc2C(C)OC)c2c3cc(ccc31)N1CCOC(CC(NC(=O)C(C(C)C)N(C)C(=O)C3(F)CCN(C(=O)C#CC(C)(C)N(C)C)CC3)C(=O)N3CCCC(N3)C(=O)OCC(C)(C)C2)C1; inactive
CC(C)NCC(C(=O)N1CCN(c2ncnc3c2C(C)CC3O)CC1)c1ccc(Cl)cc1 (stereo not given) + CCn1c(-c2cc(N3CCN(C)CC3)cnc2C(C)OC)c2c3cc(ccc31)-c1csc(n1)CC(NC(=O)C1CC1C)C(=O)N1CCCC(N1)C(=O)OCC(C)(C)C2; inactive
CCN1CCN(Cc2ccc(Nc3ncc(F)c(-c4cc(F)c5nc(C)n(C(C)C)c5c4)n3)nc2)CC1 + CCn1c(-c2cccnc2C(C)OC)c2c3cc(ccc31)N1CCOC(CC(NC(=O)C(C(C)C)N(C)C(=O)C3(F)CCN(C(=O)C#CC(C)(C)N(C)C)CC3)C(=O)N3CCCC(N3)C(=O)OCC(C)(C)C2)C1; inactive

Could you kindly confirm the outcome this assay logged for CC1(O)CCCC1n1c(=O)c(C(F)F)cc2cnc(NC3CCN(S(C)(=O)=O)CC3)nc21 (stereo not given) + CCn1c(-c2cccnc2C(C)OC)c2c3cc(ccc31)N1CCOC(CC(NC(=O)C(C(C)C)N(C)C(=O)C3(F)CCN(C(=O)C#CC(C)(C)N(C)C)CC3)C(=O)N3CCCC(N3)C(=O)OCC(C)(C)C2)C1 ?
inactive

Also CCN1CCN(Cc2ccc(Nc3ncc(F)c(-c4cc(F)c5nc(C)n(C(C)C)c5c4)n3)nc2)CC1 + CCn1c(-c2cc(N3CCN(C)CC3)cnc2C(C)OC)c2c3cc(ccc31)-c1csc(n1)CC(NC(=O)C1CC1C)C(=O)N1CCCC(N1)C(=O)OCC(C)(C)C2 , if possible.
inactive

Also CC(Nc1ccc2c(c1)OCCn1cc(N3C(=O)OCC3C(F)F)nc1-2)C(N)=O (stereo not given) + CCn1c(-c2cccnc2C(C)OC)c2c3cc(ccc31)N1CCOC(CC(NC(=O)C(C(C)C)N(C)C(=O)C3(F)CCN(C(=O)C#CC(C)(C)N(C)C)CC3)C(=O)N3CCCC(N3)C(=O)OCC(C)(C)C2)C1 , if possible.
inactive

Also CC(C)n1nc(-c2ccc3oc(N)nc3c2)c2c(N)ncnc21 + CCn1c(-c2cc(N3CCN(C)CC3)cnc2C(C)OC)c2c3cc(ccc31)-c1csc(n1)CC(NC(=O)C1CC1C)C(=O)N1CCCC(N1)C(=O)OCC(C)(C)C2 , if possible.
inactive
